target_or_test_system: UniProt Q6GI75
Sequence (Q6GI75 whole entry): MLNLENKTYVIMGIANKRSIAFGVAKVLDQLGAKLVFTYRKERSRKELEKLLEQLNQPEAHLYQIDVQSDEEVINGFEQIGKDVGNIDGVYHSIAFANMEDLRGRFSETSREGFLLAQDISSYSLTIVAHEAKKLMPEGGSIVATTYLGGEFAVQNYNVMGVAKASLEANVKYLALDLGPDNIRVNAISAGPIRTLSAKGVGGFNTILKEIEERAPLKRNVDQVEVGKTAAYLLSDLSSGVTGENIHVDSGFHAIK
parameter: Ki (µM)
Numeric answer only, unit µM assumed.

Request the reported Ki associated with Oc1ccccc1Oc1ccccc1
24.5
